Exercise: state measured cell viability for each of the compounds provided.
# Tested on: Vero E6
# assay_name: cell viability relative to DMSO; higher = less toxic
# assay_conditions: 72 h; 10000 nM
Numeric only. Scale: %

Look up cell viability for this compound: CNC(=O)N(C)N=O 97.9

Look up cell viability for this compound: COc1ccc(-c2cnc3c(-c4cccc5ncccc45)cnn3c2)cc1 105

Look up cell viability for this compound: C[C@H]1CN(C[C@H](Cc2ccccc2)C(=O)NCC(=O)O)CC[C@@]1(C)c1cccc(O)c1 104

Look up cell viability for this compound: C=CC(=O)Nc1cccc(Nc2nc(Nc3ccc(NC4CN(CCF)C4)cc3OC)ncc2C(F)(F)F)c1 26.7

Look up cell viability for this compound: CS(=O)(=O)c1ccc(-c2cc(Br)sc2-c2ccc(F)cc2)cc1 97.8

Look up cell viability for this compound: C/C=C1/[C@H](O[C@@H]2O[C@H](CO)[C@@H](O)[C@H](O)[C@H]2O)OC=C(C(=O)OC)[C@H]1CC(=O)OCCc1ccc(O)c(O)c1 95.2

Look up cell viability for this compound: COc1cc2c3cc1Oc1cc(ccc1O)C[C@@H]1c4c(cc(OC)c(O)c4Oc4ccc(cc4)C[C@@H]3N(C)CC2)CC[N+]1(C)C 118

Look up cell viability for this compound: CNC(=O)c1c(F)cccc1Nc1nc(Nc2cc3c(cc2OC)CCN3C(=O)CN(C)C)nc2[nH]ccc12 101
